# HSA-binding RIAC (apparent molecular weight) per entry
SUBJECT_OF_TEST: human serum albumin (HSA) (Homo sapiens, UniProt P02768)
Sequence (P02768 25-609): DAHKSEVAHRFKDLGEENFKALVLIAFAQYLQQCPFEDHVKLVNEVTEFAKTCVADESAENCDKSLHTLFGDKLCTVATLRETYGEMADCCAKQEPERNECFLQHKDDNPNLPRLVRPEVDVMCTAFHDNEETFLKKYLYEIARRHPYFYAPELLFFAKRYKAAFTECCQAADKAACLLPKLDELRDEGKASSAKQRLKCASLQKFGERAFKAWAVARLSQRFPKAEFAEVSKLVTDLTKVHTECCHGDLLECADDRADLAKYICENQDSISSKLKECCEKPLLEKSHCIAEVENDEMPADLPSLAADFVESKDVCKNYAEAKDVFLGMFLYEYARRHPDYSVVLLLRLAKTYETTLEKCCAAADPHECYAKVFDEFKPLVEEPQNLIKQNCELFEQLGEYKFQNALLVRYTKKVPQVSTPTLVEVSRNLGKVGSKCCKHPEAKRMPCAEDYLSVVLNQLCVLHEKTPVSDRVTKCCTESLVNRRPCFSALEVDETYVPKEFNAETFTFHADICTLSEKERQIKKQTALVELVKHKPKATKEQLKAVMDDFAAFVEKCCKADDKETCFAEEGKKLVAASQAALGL
ASSAY_METHOD_TEXT: HSA binding by radio inversed affinity chromatography (RIAC)
Type: in vitro ADME
SETTINGS: 177Lu-labelled; Superdex 75 Increase 10/300 GL, 700 μM HSA in PBS, 0.8 mL/min

Use the examples below as a reference point.
INSERT INTO assay_data (compound, experimental_result) VALUES
  ('O=C(O)CC[C@H](NC(=O)N[C@@H](CCCCNC(=O)[C@H](Cc1ccc2ccccc2c1)NC(=O)[C@H]1CC[C@H](CNC(=O)CN2CCN(CC(=O)O)CCN(CC(=O)O)CCN(CC(=O)O)CC2)CC1)C(=O)O)C(=O)O [PSMA-617, reference compound]', '13.7 kDa'),
  ('CC(C)(C)[Si](O)(c1ccc(C(=O)NC[C@@H](NC(=O)CCCCCNC(=O)CCCNC(=O)CC[C@@H](NC(=O)CCC(NC(=O)N[C@@H](CCC(=O)O)C(=O)O)C(=O)O)C(=O)O)C(=O)NCC(=O)N[C@@H](CCCCNC(=O)CC[C@@H](C(=O)O)N2CCN(CC(=O)O)CCN(CC(=O)O)CCN(CC(=O)O)CC2)C(=O)O)cc1)C(C)(C)C (stereo partly shown) [E104-SiOH]', '7.8 kDa');

Now for a further compound.
Using the record for CC(C)(C)[Si](F)(c1ccc(C(=O)NC[C@@H](NC(=O)CN2CCN(CC(=O)O)CCN(CC(=O)O)CCN(CC(=O)O)CC2)C(=O)N[C@H](CCCCNC(=O)CCC(=O)NCCC[C@@H](NC(=O)CC[C@H](NC(=O)N[C@@H](CCC(=O)O)C(=O)O)C(=O)O)C(=O)O)C(=O)O)cc1)C(C)(C)C [rhPSMA-10, reference compound] , report its HSA-binding RIAC (apparent molecular weight).
25.4 kDa

Source: patent US20230277698A1
